// reported pEC50 per item
# Test system: CEM cells HIV-1 protection, formazan growth assay
# test-name: NCI AIDS Antiviral Assay
pEC50: −log10 of the molar value.

Look over these answered cases.
CC(=O)OC1=NN=C2COC(c3ccccc3OC(C)=O)=NN2C1	< 3.70
CC(=O)NNc1nc(C)c(C(/C=C/c2ccccc2O)=N/NC(=O)c2ccncc2)s1	< 4.65
O=[N+]([O-])c1ccc(C2CC(c3ccccc3)=Nc3ccccc3S2)cc1 (centres undefined)	< 4.45
COC(=O)C1C2C(=O)NC(=O)C2C(c2ccc(-c3ccccc3)cc2)N1C1CCCCC1 (centres undefined)	< 3.87
Cc1ncc2c(c1O)COC2=O	< 2.82
CC(=O)OC1(CSc2ccccc2)CCCCC1	< 3.70
COc1cccc(/C=C/c2nccc3ccccc23)c1OC	< 3.70
CCOc1ccc(N=Nc2ccc3oc(=O)c(/C(C)=N\NC(=O)CC(=O)Nc4ccc(Cl)cc4)cc3c2)cc1	< 4.88
N#C/C(=C\c1ccc(O)c(O)c1)C(=O)OCc1ccccc1COC(=O)/C(C#N)=C/c1ccc(O)c(O)c1	< 3.70
CCN(CC)c1ccc2c(c1)Nc1cc(=C(C#N)C#N)c3ccccc3c1=N2	< 4.71

For the compound shown here, OCC(O)C1OCOC2COCOC21 (centres undefined) , give the reported pEC50.
< 3.70

Now the same for CCOC(=O)C(O)(NC(=O)Nc1ccc(F)cc1)C(F)(F)F (centres undefined)
< 3.70

Now the same for C#CCN(Cc1ccc2nc(-c3ccccc3)c(Cl)nc2c1)c1ccc(Cl)c(Cl)c1
< 3.70

Now the same for COC1CC(OC2C(C)OC(OC3C(C)OC(OC4C(C)OC(O[C@H]5CC[C@@]6(C)C(=CC[C@]7(O)[C@@H]6C[C@@H](OC(=O)/C=C(\C)C(C)C)[C@@]6(C)[C@]7(O)CC[C@@]6(O)C(C)=O)C5)CC4OC)CC3OC)CC2OC)OC(C)C1O (some centres undefined)
< 3.70

* * *

# Tested on: CEM cells HIV-1 protection, formazan growth assay
# test-name: NCI AIDS Antiviral Assay
# run-parameters: measured here: growth of uninfected CEM cells
// reported IC50 per item

CCCc1[nH]c(SCCCCCCCCSc2nc(-c3ccc(F)cc3)c(CCC)[nH]2)nc1-c1ccc(F)cc1	> 9.33 µM
CC(C)=CC(=O)C/C(=N\NC(N)=S)C(=O)Nc1ccc(Cl)cc1	> 37.2 µM
COC1(OC)CC2C(=O)CCCC21OC (centres undefined)	> 603 µM
O=P(O)(O)OC1C(OP(=O)(O)O)C(OP(=O)(O)O)C(OP(=O)(O)O)C(OP(=O)(O)O)C1OP(=O)(O)O.[Zn+2] (centres undefined)	> 100 µM
COC1=CC(=O)[C@]2(C)[C@H](C1=O)C(C)[C@H]2c1ccc(OC)cc1 (some centres undefined)	> 87.1 µM
O=C(c1ccccc1)N(CCCCNC(=O)C(F)(F)F)CCCNC(=O)C(F)(F)F	> 200 µM
O=c1cc(N2CCN(c3cc(=O)n4ccccc4n3)CC2)oc2ccccc12	> 200 µM
CCOP(=O)(OCC)OP(=O)(OCC)OCC	> 871 µM

# next molecule below
For the molecule shown here, CC(C)(C)OC(=O)N1C(=O)C2CCCC21 (centres undefined) , give the reported IC50.
> 200 µM
